Source listed as the supplement of paper PMC10201428.

Kindly state relative integration efficiency (log2) for each of the entries shown.
System: VchCAST RNA-guided transposition machinery (E. coli BL21(DE3) host, lacZ target)
test-name: relative integration efficiency (T-RL orientation) vs wild-type transposon end (log2 (normalized fold change)); transposon end mutated: right end (5 bp flank + 75 bp right end); higher = more efficient transposition
Give bare numbers.

Illustrative cases are given below, each with its answer.
{"sequence": "ACATTTGTTGATACAACCATAAAATGATAATTAATAATTATTTATACACCCATAAATTGATAATTATCAACAAACGCCCGGTCGCGGTACTCTGATCATAGTCAGACCAACATTGCTACGACCCGTA", "system": "VchCAST RNA-guided transposition machinery (E. coli BL21(DE3) host, lacZ target)", "relative integration efficiency (log2)": -3.12}
{"sequence": "ACATTTGTTGATACAACCATAAAATGATAATTCCACCCATACATTGATAATTATCACACCCAATTTAACTATAACGCTCTGATCATAGTCAGACCAACATTGCTACGACCCGTATTCGCACCGACAC", "system": "VchCAST RNA-guided transposition machinery (E. coli BL21(DE3) host, lacZ target)", "relative integration efficiency (log2)": -2.42}
{"sequence": "ACATTTCTTCATACAACCATAAAATGATAATTACACCCATAAATTCATAATTATCACACCCAATTTAACTATAACGCTCTGATCATAGTCAGACCAACATTGCTACGACCCGTATTCGCACCGACAC", "system": "VchCAST RNA-guided transposition machinery (E. coli BL21(DE3) host, lacZ target)", "relative integration efficiency (log2)": -5.24}
{"sequence": "ACATTTGTTGATACAACCATAAAATGATAATTCACCCATAAATTGATAATTATCACACCCCAATTTAACTATAACGCTCTGATCATAGTCAGACCAACATTGCTACGACCCGTATTCGCACCGACAC", "system": "VchCAST RNA-guided transposition machinery (E. coli BL21(DE3) host, lacZ target)", "relative integration efficiency (log2)": -1.88}

Here is another sequence to look at.
Query: Which relative integration efficiency (log2) is reported for this sequence? "ACATTTGTTGATACAACCATAAAATGATAATTACACCCATAAATTGATAATTATCACACCCATAAATTGATATTGCCTCTGGCTAGCACTATACCTAGGACTGAGCTAGCCGTCAACGCACCGACAC"
Reply: -4.7
